# credit: PubChem BioAssay (NCI)

growth values by entry
System: SNB-75 CNS
Test: NCI-60 one-dose screen, 48 h (100 = growth as untreated, 0 = no growth, -100 = all killed)
Details: 10 µM unless noted
Protocol: Growth inhibition of the SNB-75 human tumor cell line is measured as a screen for anti-cancer activity. Cells are grown in 96 well plates and exposed to the test compound for 48 hours. Compounds are tested at a single concentration, which is 10^-5 M for most compounds. The reported endpoint is percent growth (GI% or GIPRCNT), where numbers from 0 - 100% represent growth inhibition, and numbers from -100% - 0 represent cell death. For example, a value of 40 represents 60% growth inhibition. […]
Compounds without any hit were thinned out: in the full panel of roughly 83,000, 20% have a hit.
measured-attribute: growth (%)

> print(dat)
                         compound.structure  measured.attribute  recorded.number
1   COc1ccc(C(=S)N2CCN(c3ccccc3Cl)CC2)cc1OC              growth             85.6
2  CN1C(=O)/C(=C/c2ccc(C(=O)Nc3ncc(Cc4ccc(Cl)cc4)s3)cc2)SC1=S              growth             52.1
3  O=C1/C(=C\c2cn(-c3ccccc3)nc2-c2ccc(-c3cccs3)cc2)CCc2ccccc21              growth             45.8
4  O=C(O)c1ccc(-n2cc(/C=N/Nc3ccc(F)cc3)c(-c3cc4ccccc4oc3=O)n2)cc1              growth             85.6
5  CC(=O)[C@@H]1CCC=C2CC[C@]3(C)[C@@H](CC[C@@H]4[C@@]5(C)CCCNC(C)(C)[C@@H]5CC[C@]43C)[C@H]21              growth             23.5

---

System: CCRF-CEM leukemia
Assay: NCI-60 one-dose screen, 48 h
Conditions: 10 µM unless noted
About 83,000 compounds went through this panel and 20% of them were active in at least one assay; those are over-represented in the sample as a whole. The source made the active and inactive calls. The calls were made as follows: active = growth percent below 10; inactive = the rest.
Outcomes: active, inactive

> print(dat)
                                    compound  category
 1  CCOC(=O)C1=NN(c2ccccc2)C(=O)/C1=C\N1C(=O)CC(=O)NC1=S  inactive
 2  COc1cc(-c2csc(NC(=O)c3cc(-n4cnc(C)c4)cc(C(F)(F)F)c3)n2)cc(OC)c1OC  inactive
 3  Cn1c(-c2ccc(Br)cc2)c(O)c(=O)c2c(F)cccc21  inactive
 4  CCN(CC)CCSc1nc(-c2ccccc2)c(C#N)c(=O)[nH]1  inactive
 5  Cc1ccc(-c2nc3nc(-c4ccc(F)cc4)nc(N4CCNCC4)c3o2)cc1    active
 6       O=C1Nc2ccccc2[C@]12CC(c1ccccc1)=NN2  inactive
 7  N#CC1CCc2c(c(-c3cn[nH]c3C(F)(F)F)nc3c(F)cc4[nH]ncc4c23)C1 (stereo not given)  inactive
 8  COc1ccc(-c2nc3c(c(-c4ccccc4)nn3-c3ccccc3)c(-c3ccc(N4CCN(C)CC4)cc3)c2C#N)cc1  inactive
 9  C#CCOc1cccc(Nc2ncnc3ccc(NC(=O)CCl)cc23)c1    active
10  COc1cc(OC)c2sc(-c3ccc(-n4cncc4-c4ccc(OC)c(OC)c4)cc3)nc2c1  inactive
